System: 201T
Experiment: relative viability (nuclei count vs DMSO), 5 days (fraction); higher = more cells survive
Conditions: first compound 0.03162 µM
Endpoint: relative viability

>>> result("NC(=O)Nc1cc(-c2cccc(F)c2)sc1C(=O)N[C@H]1CCCNC1 [AZD7762] + O=C(c1cc(Cc2n[nH]c(=O)c3ccccc23)ccc1F)N1CCN(C(=O)C2CC2)CC1 [Olaparib] (partner 8 µM)")
0.854
>>> result("NC(=O)Nc1cc(-c2cccc(F)c2)sc1C(=O)N[C@H]1CCCNC1 [AZD7762] + COc1cc2c(Oc3ccc(NC(=O)C4(C(=O)Nc5ccc(F)cc5)CC4)cc3F)ccnc2cc1OCCCN1CCOCC1 [Foretinib] (partner 0.25 µM)")
1.26
>>> result("NC(=O)Nc1cc(-c2cccc(F)c2)sc1C(=O)N[C@H]1CCCNC1 [AZD7762] + Nc1ncn([C@H]2C[C@H](O)[C@@H](CO)O2)c(=O)n1 [Decitabine] (partner 2 µM)")
0.872
>>> result("NC(=O)Nc1cc(-c2cccc(F)c2)sc1C(=O)N[C@H]1CCCNC1 [AZD7762] + Cc1nc(Nc2ncc(C(=O)Nc3c(C)cccc3Cl)s2)cc(N2CCN(CCO)CC2)n1 [Dasatinib] (partner 0.075 µM)")
0.584

----------
Tested on: LK-2
Test: relative viability (nuclei count vs DMSO), 5 days (fraction); higher = more cells survive
Conditions: first compound 0.4 µM
Endpoint: relative viability

>>> numeric_value("O=C(O)c1ccc(-c2c[nH]c3ncc(-c4ccccc4)cc23)cc1C1CCCC1 + COc1cccc2cc(-c3nc([C@H]4CC[C@H](C(=O)O)CC4)n4ncnc(N)c34)[nH]c12 [OSI-027] (partner 0.5 µM)")
0.165
>>> numeric_value("O=C(O)c1ccc(-c2c[nH]c3ncc(-c4ccccc4)cc23)cc1C1CCCC1 + CC1(C)CCC(c2ccc(Cl)cc2)=C(CN2CCN(c3ccc(C(=O)NS(=O)(=O)c4ccc(N[C@H](CCN5CCOCC5)CSc5ccccc5)c(S(=O)(=O)C(F)(F)F)c4)cc3)CC2)C1 [Navitoclax] (partner 0.5 µM)")
0.795
>>> numeric_value("O=C(O)c1ccc(-c2c[nH]c3ncc(-c4ccccc4)cc23)cc1C1CCCC1 + CS(=O)(=O)CCNCc1ccc(-c2ccc3ncnc(Nc4ccc(OCc5cccc(F)c5)c(Cl)c4)c3c2)o1 [Lapatinib] (partner 2 µM)")
0.744

----------
System: HCC-827
Assay: relative viability (nuclei count vs DMSO), 5 days (fraction); higher = more cells survive
Conditions: first compound 0.01581 µM
We begin with a simple list: items and their reported relative viability.
Endpoint: relative viability

>>> result("CC1(C)CCC(c2ccc(Cl)cc2)=C(CN2CCN(c3ccc(C(=O)NS(=O)(=O)c4ccc(N[C@H](CCN5CCOCC5)CSc5ccccc5)c(S(=O)(=O)C(F)(F)F)c4)cc3)CC2)C1 [Navitoclax] + Nc1nc2[nH]cc(CCc3ccc(C(=O)N[C@@H](CCC(=O)O)C(=O)O)cc3)c2c(=O)[nH]1 [Pemetrexed] (partner 0.2 µM)")
0.261
>>> result("CC1(C)CCC(c2ccc(Cl)cc2)=C(CN2CCN(c3ccc(C(=O)NS(=O)(=O)c4ccc(N[C@H](CCN5CCOCC5)CSc5ccccc5)c(S(=O)(=O)C(F)(F)F)c4)cc3)CC2)C1 [Navitoclax] + CS(=O)(=O)CCNCc1ccc(-c2ccc3ncnc(Nc4ccc(OCc5cccc(F)c5)c(Cl)c4)c3c2)o1 [Lapatinib] (partner 2 µM)")
0.2
>>> result("CC1(C)CCC(c2ccc(Cl)cc2)=C(CN2CCN(c3ccc(C(=O)NS(=O)(=O)c4ccc(N[C@H](CCN5CCOCC5)CSc5ccccc5)c(S(=O)(=O)C(F)(F)F)c4)cc3)CC2)C1 [Navitoclax] + CC(=O)Nc1cccc(-n2c(=O)n(C3CC3)c(=O)c3c(Nc4ccc(I)cc4F)n(C)c(=O)c(C)c32)c1 [Trametinib] (partner 0.02 µM)")
0.567

Reference for the values: the supplement of paper PMC10307832
